Test system: CAKI-1 renal
assay_text: NCI-60 one-dose screen, 48 h (100 = growth as untreated, 0 = no growth, -100 = all killed)
measurement_conditions: 10 µM unless noted
About 83,000 compounds went through this panel and 20% of them were active in at least one assay; those are over-represented in the sample as a whole.
Parameter growth: see the listing below.
Reply with just the number (in %).

Some entries whose results are on file:
| compound | unit_spec | growth |
| --- | --- | --- |
| C=C1CCC2C3(C)COC(c4cccc(F)c4)OC3CCC2(C)C1C/C=C1/C(=O)OCC1O (stereo not drawn) | % | 11 |
| CC(=O)/C=C/c1cccc2c1C(=O)NC(C)(c1cc3cc(Br)ccc3oc1=O)N2 (stereo not drawn) | % | 21.3 |
| CN1CCc2c(sc3ncnc(N/N=C/c4ccc(Cl)cc4Cl)c23)C1 | % | -61.6 |
| CC(=O)OC[C@@]1(C)C2CC[C@]3(C)C(CC=C4C5CC(C)(C)CC[C@]5(C(=O)Nc5cccc(C)c5)CC[C@]43C)[C@@]2(C)C[C@@H](OC(C)=O)[C@@H]1OC(C)=O (stereo partly drawn) | % | 42.2 |

Indicate the recorded growth value for this compound: Cc1ccc(C(=O)NN2C(=O)/C(=C/C=C/c3ccc([N+](=O)[O-])o3)SC2=S)cc1
-100

Indicate the recorded growth value for this compound: CN(C)c1nc(NCCNS(=O)(=O)c2ccc(C3=Nc4c(N)nc(N)nc4NC(c4ccc(F)cc4)C3)cc2)nc(Nc2ccc(F)cc2)n1 (stereo not drawn)
64.4

Indicate the recorded growth value for this compound: O=C(NNc1ccccc1)n1c(=O)c2ccccc2c(=O)n1-c1ccccc1
77.2

====

Test system: M14 melanoma
assay_text: NCI-60 one-dose screen, 48 h (100 = growth as untreated, 0 = no growth, -100 = all killed)
measurement_conditions: 10 µM unless noted
Protocol: Growth inhibition of the M14 human tumor cell line is measured as a screen for anti-cancer activity. Cells are grown in 96 well plates and exposed to the test compound for 48 hours. Compounds are tested at a single concentration, which is 10^-5 M for most compounds. The reported endpoint is percent growth (GI% or GIPRCNT), where numbers from 0 - 100% represent growth inhibition, and numbers from -100% - 0 represent cell death. For example, a value of 40 represents 60% growth inhibition. […]
About 83,000 compounds went through this panel and 20% of them were active in at least one assay; those are over-represented in the sample as a whole.
reported_property: growth (%)
Reply with just the number (in %).

| molecule | growth (%) |
| --- | --- |
| N#Cc1ccc(C(=O)Nn2c(N)cc3ccccc3c2=O)cc1 | 94.5 |
| C=C1CC[C@@H]2[C@]3(C)COC(c4cn[nH]c4-c4ccc(F)cc4)O[C@@H]3CC[C@@]2(C)[C@@H]1C/C=C1/C(=O)OCC1O (stereo not given in full) | -63.4 |
| COc1ccc(-c2nc3cc(C)ccc3n2CC(=O)N=Nc2c(O)[nH]c3ccccc23)cc1 | -71.5 |

Indicate the recorded growth value for this molecule: O=c1c2ccccc2nc(-c2ccccc2)n1/N=C/c1ccc2ccccc2c1
57.2

Indicate the recorded growth value for this molecule: COc1cc(/C=C/C(=O)c2ccccc2)ccc1Oc1nc(Nc2ccc(F)cc2)nc(N(C)C)n1
38.7

====

Test system: OVCAR-3 ovarian
assay_text: NCI-60 one-dose screen, 48 h (100 = growth as untreated, 0 = no growth, -100 = all killed)
measurement_conditions: 10 µM unless noted
This is part of a sample that, as a whole, favours compounds with a hit. Of some 83,000 tested, about 20% had one in any assay. Active and inactive are the calls of the source. How the source made its calls: active means growth percent below 10; inactive means the rest.
Parameter growth: see the listing below.

Some entries whose results are on file:
| molecule | measured |
| --- | --- |
| O=C(/C=C/c1cccc(OCc2ccccc2)c1)c1nc2ccccc2[nH]1 | 38.3% (inactive) |
| CCCCCCCCc1ccc(C(=O)Nc2ccc(C)cc2C(=O)O)cc1C | 108% (inactive) |
| Cn1cc(-c2cc3nc(-c4cn(C)c5ncccc45)cc(N)n3n2)c2ccccc21 | 6.85% (active) |
| N/C(=N\c1nc2ccccc2s1)NC(=O)NCCCCCCO | 61.8% (inactive) |
| CCN(CC)c1ccnc(CNCCSC(c2ccccc2)(c2ccccc2)c2ccc(OC)cc2)c1 | -43% (active) |

Indicate the recorded growth value for this molecule: CC(=O)Nc1ccc(-c2cn(-c3cccc(C(=O)Nc4ccc(N5CCN(C)CC5)cc4)c3)nn2)cn1
109% (inactive)

Indicate the recorded growth value for this molecule: C#CCOc1ccc(/C=N/Nc2nc(-c3ccc(F)cc3)cs2)cc1OC
71.2% (inactive)

Indicate the recorded growth value for this molecule: Cc1cc2c(cc1Cl)C(=O)/C(=C/c1ccc(F)cc1)O2
124% (inactive)

Indicate the recorded growth value for this molecule: C=C1CCC2C3(C)COC(c4ccccc4)OC3CCC2(C)C1CC(Sc1ccccc1)C1=CCOC1=O (centres undefined)
44% (inactive)

Indicate the recorded growth value for this molecule: N#Cc1c(-c2ccc(Br)cc2)nc2n[nH]c(-c3ccc(Br)cc3)c2c1-c1ccc(F)cc1
106% (inactive)

Indicate the recorded growth value for this molecule: COc1ccc(C(=O)/C=C/c2ccc(OCc3ccccc3)c(OC)c2)cc1OC
25.8% (inactive)

Indicate the recorded growth value for this molecule: COc1c(F)ccc(C(=O)Nc2ccc3nc(NC(=O)C4CCCN(S(=O)(=O)c5cccc(Br)c5)C4)sc3c2)c1F (centres undefined)
106% (inactive)

Where do the numbers come from? From PubChem BioAssay (NCI).
